Assay: protein stability index of a GFP-peptide fusion (yeast GPS) (PSI 1-4); higher = more stable; sorted into four equal gates, so the index is relative within each strain
Conditions: doa10∆
Use protein stability index to assign classes; range list: L (below 2), M (2 to below 3), H (3 or more)

Exercise: # bin lookup: classify EGNAQLVAIFGGQGNTD [FAS1] by its protein stability index
Key: L

Exercise: Entry HVKRITKIAQSQTMAET [ECM29] belongs to which category?
Key: M

Exercise: Category of ECLPAEGHDWKAPTKLD [DIS3] , please.
Key: H

Exercise: Returns: class label. Input: SFIFQYYGLVIDLLLLG [PRP8]
Key: L

Exercise: Categorize the following entry: DQMVVGWYHSHPGFGCW [RPN11]
Key: M

Exercise: Given TEIENYLLENNQVGTDE [YDL116W/NUP84] , name the class its protein stability index places it in.
Key: H

Exercise: Which bin should I file DDSSSDNDSLTDLESLS [SIR4] under?
Key: H

Exercise: Would you mind sorting NTLLISGPFKVNGVPLR [RPL6A] into the appropriate category?
Key: M

###

Assay: protein stability index of a GFP-peptide fusion (yeast GPS) (PSI 1-4); higher = more stable; sorted into four equal gates, so the index is relative within each strain
Conditions: pdr5∆
Note to self: values exactly at 3 are 1 (yes). So protein stability index at or above 3 is 1 (yes), below is 0 (no).

>  <Biopolymer Sequence>
LFPVAAQDSLTVTIASS [RPB8]

>  <Classification>
0 (no)

$$$$
>  <Biopolymer Sequence>
SKPVLIVGQKNLNRAFN [DIS3]

>  <Classification>
0 (no)

$$$$
>  <Biopolymer Sequence>
MINRLLLCALDRKDQDD [RPB2]

>  <Classification>
1 (yes)

$$$$
>  <Biopolymer Sequence>
YITARIMAKRPFDKKSN [FAS1]

>  <Classification>
0 (no)

$$$$
>  <Biopolymer Sequence>
LLKLTKVFIRESLSLKN [YML103C/NUP188]

>  <Classification>
0 (no)

$$$$

Exercise: Given SNVNSDIYFKLKKLEKE [RPT3] , state whether its protein stability index is at least 3.
Key: 0 (no)

###

Experiment: protein stability index of a GFP-peptide fusion (yeast GPS) (PSI 1-4); higher = more stable; sorted into four equal gates, so the index is relative within each strain
Details: pdr5∆
# protein stability index >= 2 gives YES, anything below gives NO

Solved entries (count: 5):
>  <Biopolymer Sequence>
NLGSNVRNSFPLDEIPV [REC8]

>  <Classification>
YES

$$$$
>  <Biopolymer Sequence>
FDYSVILNSIPAAANLD [YJL039C/NUP192]

>  <Classification>
NO

$$$$
>  <Biopolymer Sequence>
PEDPYFNTLVRIMSTRC [DIS3]

>  <Classification>
YES

$$$$
>  <Biopolymer Sequence>
TPLSIKIMVAEWYLSHL [SRB8]

>  <Classification>
YES

$$$$
>  <Biopolymer Sequence>
RHHRKTEKEEDAELMAD [ISW2]

>  <Classification>
YES

$$$$

We next turn to a different sequence, shown below.
Exercise: Dear colleague, could you confirm whether YLMDSKNVRTRIKLATT [RRI1] has protein stability index at or above 2?
Key: YES

###

Assay: protein stability index of a GFP-peptide fusion (yeast GPS) (PSI 1-4); higher = more stable; sorted into four equal gates, so the index is relative within each strain
Conditions: pdr5∆
Binary classification by protein stability index, with 3 as an inclusive lower bound for criterion met; all other cases are criterion not met.

>  <Biopolymer Sequence>
KKFDISNDNLDLISEIL [MED1]

>  <Classification>
criterion not met

$$$$
>  <Biopolymer Sequence>
YCSGNIYDFHKMENLMR [YJL039C/NUP192]

>  <Classification>
criterion not met

$$$$
>  <Biopolymer Sequence>
VMLKGIVTALLESDVNI [SRP54]

>  <Classification>
criterion not met

$$$$
>  <Biopolymer Sequence>
PRTLIGHRATVTDIAII [RPN14]

>  <Classification>
criterion met

$$$$
>  <Biopolymer Sequence>
TVPRIVQLLSKSHNAHV [RPN2]

>  <Classification>
criterion not met

$$$$
>  <Biopolymer Sequence>
NVFNDTPRGNHWMGSSV [YMR129W/POM152]

>  <Classification>
criterion met

$$$$

Exercise: Answer whether protein stability index of KKHKQKKVLEIDFFKTD [BRN1] is greater than or equal to 3.
Key: criterion not met

###

Assay: protein stability index of a GFP-peptide fusion (yeast GPS) (PSI 1-4); higher = more stable; sorted into four equal gates, so the index is relative within each strain
Conditions: doa10∆
# protein stability index binned as low class = under 2, middle class = from 2 up to 3, high class = 3 and over

>  <Biopolymer Sequence>
NDLHHSEKKYAEEDQVQ [RPN3]

>  <Classification>
middle class

$$$$
>  <Biopolymer Sequence>
ILEDYCYFRDFEYCRID [ISW2]

>  <Classification>
middle class

$$$$
>  <Biopolymer Sequence>
EKIDGMDVDSVKTTLVS [RPC82]

>  <Classification>
middle class

$$$$
>  <Biopolymer Sequence>
KRITQITIEPGVDVEVV [RPS20]

>  <Classification>
middle class

$$$$
>  <Biopolymer Sequence>
KGNVGFVFTNEPLTEIK [RPP0]

>  <Classification>
high class

$$$$
>  <Biopolymer Sequence>
LKVLSGDEGYNEDMVRR [SNF12]

>  <Classification>
high class

$$$$
>  <Biopolymer Sequence>
FVDLVEHFLKLNIDFGS [YML103C/NUP188]

>  <Classification>
middle class

$$$$
>  <Biopolymer Sequence>
DDVRDFVIRREVTKGEK [RPS6A]

>  <Classification>
high class

$$$$
>  <Biopolymer Sequence>
SFKYLSNNDEDDKDCTI [RGR1]

>  <Classification>
middle class

$$$$
>  <Biopolymer Sequence>
FEGDSNMLICAPTGSGK [BRR2]

>  <Classification>
low class

$$$$

Exercise: Which protein stability index category applies to STCIVSLIRNNLHAEGW [ECM29] here?
Key: low class

Exercise: # bin label for RSPPRPPSLKIIDGPKA [PRP28]
Key: middle class

Exercise: Which bin, given its protein stability index, does RSDREYPLLIRMSYGSH [SRP14] occupy?
Key: middle class

Exercise: Each sequence maps to one class by protein stability index. Which class for NILWAIYNSASKASMQK [YCS4] ?
Key: low class

Exercise: Please let me know in which category the item MSAKAEKKPASKAPAEK [HTB1] belongs.
Key: high class

Exercise: Would you mind sorting RWEMEAFGEFSLEGCVE [FAS2] into the appropriate category?
Key: high class

Exercise: For the record SIREQVHMYHKSLALLG [SNF5] , report the class its protein stability index corresponds to.
Key: low class

Exercise: Lab log: FLNHAFDYMNRYWVQKE [CDC53] — assign protein stability index category
Key: middle class

###

Assay: protein stability index of a GFP-peptide fusion (yeast GPS) (PSI 1-4); higher = more stable; sorted into four equal gates, so the index is relative within each strain
Settings: ubr1∆
Label scheme for protein stability index: lower than 3 is Not satisfied, 3 and above is Satisfied.

Solved entries (count: 3):
>  <Biopolymer Sequence>
TGTARLNSMPNNVNEYS [YJL039C/NUP192]

>  <Classification>
Not satisfied

$$$$
>  <Biopolymer Sequence>
EKSLLPKIETNVYVGMT [ISW2]

>  <Classification>
Satisfied

$$$$
>  <Biopolymer Sequence>
PLIWQLLQSSIINKLIH [POP3]

>  <Classification>
Not satisfied

$$$$

Exercise: Textbook exercise: given the entry VENELLQVDVDIAGQRD [RRP42] , state whether its protein stability index is greater than or equal to 3.
Key: Not satisfied

Exercise: Dear colleague, could you confirm whether LSILKGDYSQATVLSRK [RPN5] has protein stability index at or above 3?
Key: Not satisfied

Exercise: Could you verify whether the entry RSVDRAGRKFKSRRCDD [POP4] shows protein stability index of no less than 3?
Key: Satisfied

Exercise: Is protein stability index for DERSQGEKNFTSAHLKL [SMC4] at or above 3?
Key: Satisfied

Exercise: I'd appreciate it if you could say whether HTEDESTKELKFSDIIQ [BRN1] has protein stability index at least equal to 3.
Key: Satisfied

Exercise: Hello, I need to know if DNNYNTAETNNKVHETS [YDL088C/ASM4] has measured protein stability index not below 3. Thanks!
Key: Not satisfied

Exercise: Could you please find out whether IVNVLSKCLNLISDSNI [SWI3] has protein stability index that meets 3 or exceeds it?
Key: Not satisfied

###

Assay: protein stability index of a GFP-peptide fusion (yeast GPS) (PSI 1-4); higher = more stable; sorted into four equal gates, so the index is relative within each strain
Conditions: pdr5∆
Note that class boundaries on protein stability index are group A (below 2), group B (2 to below 3), group C (3 or more)

Solved cases (2 shown):
>  <Biopolymer Sequence>
HAMGGREGLIDTAVKTA [RPO21]

>  <Classification>
group A

$$$$
>  <Biopolymer Sequence>
QLLTPGSKISSNDLDKF [YGL172W/NUP49]

>  <Classification>
group B

$$$$

Exercise: Using the reported protein stability index, which band applies to QGRRNSRNFSTRDEETT [SIR4] ?
Key: group C

Exercise: State the class of the sequence shown: IFRGSLIGCIPYSKNAV [YDL088C/ASM4]
Key: group B

Exercise: // return the class label for PYMNHKNTSSMDFLNSM [GAL11]
Key: group A

Exercise: Which protein stability index category applies to LGLCCLLDVKLAIDNMY [YCG1] here?
Key: group A

Exercise: Lab note: sort RQPSLHRLSILSHYAKI [RPO31] into the matching protein stability index band.
Key: group B

Exercise: The entry to classify is QKYNLLHVLPTLNSRAL [SNM1] ; which class holds it?
Key: group A

Exercise: Hi there! Could you help me figure out the category for TFIKDCLFTKCLEDPEK [POP4] please?
Key: group A

Exercise: For this sequence, which bin applies? PLRGALATYGLTIDDLG [FAS2]
Key: group B

Exercise: Consider ESSHEQEEFVQFLQLDN [ECM29] . To which protein stability index class does it belong?
Key: group C
